# assay system: Flap endonuclease 1 (Homo sapiens)
# assay comment: qHTS Assay for the Inhibitors of Human Flap endonuclease 1 (FEN1). Note: nearly all actives have a fitted effect of over 65% in size. Note: potency is the fitted concentration of half-maximal effect.
# condition parameters: Recombinant FEN1 flap cleavage, fluorescence, 15 min; series mostly up to 114 µM
# Experimental: The major human flap endonuclease FEN1 is an efficient structure-specific enzyme that recognizes and cleaves a 5'-unannealed DNA flap. […] Three uL of reagents (buffer in column 3 and 4 as negative control and 10 nM FEN1 in columns 1, 2, and 5-48) were dispensed into 1,536-well black solid-bottomed plate. […] The plates were then incubated for 15 min at room temperature, and 1 uL substrate (50 nM final concentration) were added to start the reaction read twice at 0 min read and 15 min on ViewLux reader. […]
Hit rate of the full screen: of about 390,000 compounds, about 1,400 (0.36%) were called active. Inconclusive results (about 2%) are left out. This is one part of a sample in which actives are shown more often than they occur.
property name: Potency

Check out these entries, answers already filled in.
# molecule, Potency
data = [
    ("O=C(O)c1cc[c]([Sb](=[O])([OH])[OH])cc1[N+](=O)[O-]", "1.41 µM (active)"),
    ("Cc1cc(C)c2c(c1)NP(=S)(c1ccccc1)N2 (centres undefined)", "inactive"),
    ("O=P1(Oc2ccccc2)CC(O)C(O)C(COCc2ccccc2)O1 (centres undefined)", "inactive"),
    ("COc1cccc(N2C(=O)NC(=O)/C(=C\\c3ccc([N+](=O)[O-])s3)C2=O)c1", "39.8 µM (active)"),
    ("N#Cc1c(Cl)c(Cl)c(Cl)c(C#N)c1Cl", "inactive"),
    ("CC1C(=O)OC2CCN3CC=C(COC(=O)C(C)(O)C1(C)O)C23 (centres undefined)", "inactive"),
    ("CCC(=O)OC(Cc1ccccc1)(c1ccccc1)C(C)CN(C)C (centres undefined)", "inactive"),
    ("COc1ccc2c(c1)NP(=S)(c1ccccc1)N2 (centres undefined)", "inactive"),
]

--- query ---
According to the records, this molecule O=C(c1ccccc1[N+](=O)[O-])N1CCC2(CC1)OCCO2 displays Potency of inactive
